Assay: in vitro
Settings: human, hek293t cells
Label label 1 when viability at 48 h, 25 µM < 60%; otherwise label 0.

                                   molecule  answer_label
0  C=CC(=O)N1CCC(C(=O)NCCn2c(=O)[nH]c3ccccc32)CC1       label 0
1              C=CC(=O)NCCc1cnc2c(Cl)cnn2c1       label 0
2       CNC(=O)C(F)(F)C1(O)CCN(C(=O)CCl)CC1       label 1
3  CC(Cl)C(=O)NC(C)C(=O)Nc1ccc(-n2cncn2)cc1 (stereo not shown)       label 0
4  C=CC(=O)N1CCC(C(=O)NCc2cc(C)c[nH]c2=O)CC1       label 0

Next molecule, please.
Please indicate whether the reported viability at 48 h, 25 µM of CC(=O)NCc1ccc(C2CCCN2C(=O)CCl)o1 (stereo not shown) is strictly below 60%. label 1
